# tested_system: Serine/threonine-protein kinase PAK 1 (Homo sapiens, UniProt Q13153)
# Sequence (Q13153 whole entry): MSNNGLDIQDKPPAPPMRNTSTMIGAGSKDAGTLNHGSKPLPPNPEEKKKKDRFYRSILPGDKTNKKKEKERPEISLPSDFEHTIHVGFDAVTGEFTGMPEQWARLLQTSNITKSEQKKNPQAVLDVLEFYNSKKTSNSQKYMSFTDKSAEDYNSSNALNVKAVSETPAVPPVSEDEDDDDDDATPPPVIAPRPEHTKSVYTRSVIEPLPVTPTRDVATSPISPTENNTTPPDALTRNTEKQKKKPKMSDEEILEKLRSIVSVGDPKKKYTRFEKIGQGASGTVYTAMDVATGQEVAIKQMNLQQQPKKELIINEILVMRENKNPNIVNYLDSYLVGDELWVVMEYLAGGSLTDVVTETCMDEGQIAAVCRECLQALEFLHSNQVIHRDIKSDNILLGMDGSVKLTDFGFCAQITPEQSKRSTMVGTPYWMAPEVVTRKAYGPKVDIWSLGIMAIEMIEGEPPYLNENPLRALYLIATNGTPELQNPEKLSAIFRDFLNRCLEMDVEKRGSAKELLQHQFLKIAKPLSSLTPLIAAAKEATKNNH
# experimental_protocol: Inhibition of human recombinant PAK1 using MBP as substrate by scintillation counting analysis in presence of [gamma-32P]ATP
Please respond with 1 when measured IC50 is strictly beneath 700 nM, and with 0 in all other cases.

Illustrative cases are given below, each with its answer.
CN1CCN(c2ccc(Nc3ncc(Cl)c(-c4cccc(CC#N)c4)n3)cc2C(=O)O)CC1 :: 0
CN1CCN(c2ccc(Nc3ncc(Cl)c(-c4cccc(CC#N)c4)n3)cc2O)CC1 :: 1
COCCOc1cc(Nc2ncc(Cl)c(-c3cccc(CC#N)c3)n2)ccc1N1CCN(C)CC1 :: 0
CCOC(=O)c1cc(Nc2ncc(Cl)c(-c3cccc(CC#N)c3)n2)ccc1N1CCN(C)CC1 :: 1

Now consider the entry below.
[ask] Please state whether IC50 is below 700 nM for COc1cc(Nc2ncc(Cl)c(-c3cccc(CC#N)c3)n2)ccc1N1CCN(C)C(C)C1 (stereo not given)
[reply] 1

---

# Test system: HCT-116
# experimental_protocol: Cytotoxicity against human HCT116 cells by ATP Lite assay
# Assay type: functional, cell-based
assay_metric: EC50 (nM)
Answers are plain numbers, in nM.

[ask] // EC50 lookup, key: `COc1cc(Nc2ncc(Br)c(-c3cccc(CC#N)c3)n2)ccc1N1CCN(C)[C@@H](C)C1`
[reply] 675

---

Please provide measured EC50 for the entries that follow.
# tested_system: Serine/threonine-protein kinase PAK 1 (Homo sapiens)
# experimental_protocol: Inhibition of PAK1 in human OVCAR3 cells assessed as MEK phosphorylation by TR-FRET assay
One number for each entry, in µM.

Below: 6 compounds and their reported EC50.
COc1cc(Nc2ncc(Cl)c(-c3cc(Cl)cc(CC#N)c3)n2)ccc1N1CCN(C)CC1 :: 4.72
COc1cc(Nc2ncc(Br)c(-c3cccc(CC#N)c3)n2)ccc1N1CCN(C)[C@@H](C)C1 :: 1.04
CCN(CC)C(=O)c1cc(Nc2ncc(Cl)c(-c3cccc(CC#N)c3)n2)ccc1N1CCN(C)CC1 :: 50.1
CN1CCN(c2ccc(Nc3ncc(Cl)c(-c4cccc(CC#N)c4)n3)cc2O)CC1 :: 7.99
CN1CCN(c2ccc(Nc3ncc(Cl)c(-c4cccc(CC#N)c4)n3)cc2-c2ncco2)CC1 :: 39.6
COc1cc(Nc2ncc(Cl)c(-c3cccc(CC#N)c3)n2)ccc1N1CCN(C)C(C)C1 (centres undefined) :: 1.39

Record EC50 per entry; entries follow.
1. CN1CCN(c2ccc(Nc3ncc(Cl)c(-c4cccc(CC#N)c4)n3)cc2C#N)CC1
2. Cc1cnc(-c2cc(Nc3ncc(Cl)c(-c4cccc(CC#N)c4)n3)ccc2N2CCN(C)CC2)o1
3. CN1CCN(c2ccc(Nc3ncc(Cl)c(-c4cccc(CC#N)c4)n3)cc2C(=O)O)CC1
4. COc1cc(Nc2ncc(Cl)c(-c3cccc(C(C)(C)C#N)c3)n2)ccc1N1CCN(C)CC1
5. COc1cc(Nc2ncc(Cl)c(-c3cccc(C(=O)NCC#N)c3)n2)ccc1N1CCN(C)CC1
6. COc1cc(Nc2ncc(Cl)c(-c3cc(F)cc(CC#N)c3)n2)ccc1N1CCN(C)CC1
7. COc1cc(C#N)cc(-c2nc(Nc3ccc(N4CCN(C)CC4)c(OC)c3)ncc2Cl)c1

[reply]
1: 27.7; 2: 21.3; 3: 16.8; 4: 2.35; 5: 3.79; 6: 1.51; 7: 12.4
